tested on: CP203; experiment: qHTS profiling for inhibitors of Plasmodium falciparum proliferation (AID 504749); further: nearly all actives have a fitted effect of over 60% in size; conditions: P. falciparum in erythrocytes, SYBR Green DNA, 72 h; series mostly up to 28.7 µM
Inconclusive results are not listed. Activity calls are given as the source filed them. The call rests on the fitted dose curve; in most records, active means well fitted inhibition curve with a large enough effect; inconclusive means small, poorly fitted or top-dose-only effect; inactive means flat fitted curve, though single readings scatter.
Select the matching outcome among 1.0 = active, 0.0 = inactive

The examples below pair each entry with its known result.
CC1=C(/C=C/C(C)=C/C=C/C(C)=C/C=C/C=C(C)/C=C/C=C(C)/C=C/C2=C(C)C(=O)CCC2(C)C)C(C)(C)CCC1=O	0.0
Nc1c(N=Nc2ccc(-c3ccc(N=Nc4cc(S(=O)(=O)O)c5ccccc5c4N)cc3)cc2)cc(S(=O)(=O)O)c2ccccc12	0.0
O=S(=O)(O)c1cc(O)c2c(N=Nc3ccc(Nc4ccccc4)c4c(S(=O)(=O)O)cccc34)cc(S(=O)(=O)O)cc2c1	0.0
Cc1c(C)c2c(c(C)c1O)CC[C@@](C)(CCC[C@H](C)CCC[C@H](C)CCCC(C)C)O2	0.0
CO[C@H](C(=O)[C@@H](O)[C@@H](C)O)C1Cc2cc3cc(O[C@H]4C[C@@H](O[C@H]5C[C@@H](O)[C@H](O)[C@@H](C)O5)[C@@H](O)[C@@H](C)O4)c(C)c(O)c3c(O)c2C(=O)[C@H]1O[C@H]1C[C@@H](O[C@H]2C[C@@H](O[C@H]3C[C@](C)(O)[C@H](O)[C@@H](C)O3)[C@H](O)[C@@H](C)O2)[C@H](O)[C@@H](C)O1 (stereo partly drawn)	1.0
COC(F)(F)C(Cl)Cl	0.0
O=C(O)CN(CCN(CC(=O)O)CC(=O)O)CC(=O)O	0.0
Cc1cn([C@H]2C[C@H](O)[C@@H](CO)O2)c(=O)[nH]c1=O	0.0

Continue with the compound presented below.
Which outcome was assigned to CCN(CC)CCOc1ccc(-c2nc3cc(Cl)ccc3s2)cc1 in this test?
0.0

###

assay: qHTS drug screen for cell cycle checkpoint inhibitors in PARPi-resistant BRCA-mutant ovarian cancer cell lines. (AID 1963452); details: PEO1/OlaR viability, CellTiter-Glo luminescence, 96 h; measured here: PEO4 Z-AUC; stronger effect = lower value
Under this convention, yes (1) denotes Z-AUC strictly below -0.2 and no (0) denotes Z-AUC at or above -0.2.

Please determine if CCN(c1cc(C#CCN2CCOCC2)cc(C(=O)NCc2c(C)cc(C)[nH]c2=O)c1C)C1CCC(N(C)CCOC)CC1 (centres undefined) is below -0.2 in terms of Z-AUC.
no (0)

Please determine if Nc1ccn([C@@H]2C(F)=C(CO)[C@@H](O)[C@H]2O)c(=O)n1 is below -0.2 in terms of Z-AUC.
yes (1)

Please determine if CN1CC[C@@H](NC(=O)Nc2ccc(C#N)cc2)C[C@@H]1c1nc2ccccc2[nH]1 is below -0.2 in terms of Z-AUC.
yes (1)

Please determine if C[C@@H]1CCN(C(=O)CC#N)C[C@@H]1N(C)c1ncnc2[nH]ccc12 is below -0.2 in terms of Z-AUC.
no (0)

Please determine if NS(=O)(=O)OC[C@@H]1C[C@@H](n2ccc3c(N[C@H]4CCc5ccccc54)ncnc32)C[C@@H]1O is below -0.2 in terms of Z-AUC.
yes (1)

Please determine if O=C(O)c1ccc(CCCc2ccc(OCCc3ccc(F)cc3)cc2)o1 is below -0.2 in terms of Z-AUC.
no (0)
